- Tested on: THP-1
- ASSAY_INFO: Cytotoxicity against human THP1 cells assessed as reduction in cell viability after 24 hrs by MTT assay
- Format: functional, cell-based
- PROTOCOL_CONDITIONS: THP-1, 24 h
MEASURED_PROPERTY: IC50 (µM)

CHEMICAL_SMILES	MEASURED_PROPERTY	VALUE_REPORTED
COc1ccc(/C=C2\CN(C)C/C(=C\c3ccccc3F)C2=O)cc1	IC50	15.4
COc1cc(/C=C2\CN(C)C/C(=C\c3ccc(Br)cc3)C2=O)cc(OC)c1OC	IC50	5.33
CN1C/C(=C\c2ccc(Br)cc2)C(=O)/C(=C/c2cccc([N+](=O)[O-])c2)C1	IC50	7.69
COc1ccc(/C=C2\CN(C)C/C(=C\c3ccccc3F)C2=O)cc1OC	IC50	11.2
CN1C/C(=C\c2ccc(F)cc2)C(=O)/C(=C/c2cccc([N+](=O)[O-])c2)C1	IC50	7.16
CN1C/C(=C\c2ccc(Cl)cc2)C(=O)/C(=C/c2cccc([N+](=O)[O-])c2)C1	IC50	7.87
CN1C/C(=C\c2ccc(C#N)cc2)C(=O)/C(=C/c2ccc(Cl)cc2Cl)C1	IC50	1.91
CN1C/C(=C\c2cccc([N+](=O)[O-])c2)C(=O)/C(=C/c2ccccc2F)C1	IC50	1.01
CN1C/C(=C\c2cccc([N+](=O)[O-])c2)C(=O)/C(=C/c2ccc(Cl)cc2Cl)C1	IC50	3.56
CN1C/C(=C\c2cccc([N+](=O)[O-])c2)C(=O)/C(=C/c2ccc(Cl)c(Cl)c2)C1	IC50	5.02
COc1cccc2c1C(=O)c1c(O)c3c(c(O)c1C2=O)C[C@@](O)(C(=O)CO)C[C@@H]3O[C@H]1C[C@H](N)[C@H](O)[C@H](C)O1	IC50	0.67
CN1C/C(=C\c2ccc(C(C)(C)C)cc2)C(=O)/C(=C/c2ccccc2F)C1	IC50	13.4
COc1cc(/C=C2\CN(C)C/C(=C\c3ccc(Cl)c(Cl)c3)C2=O)cc(OC)c1OC	IC50	5.33
COc1cc(/C=C2\CN(C)C/C(=C\c3ccc(C#N)cc3)C2=O)cc(OC)c1OC	IC50	0.82
COc1cc(/C=C2\CN(C)C/C(=C\c3cccc([N+](=O)[O-])c3)C2=O)cc(OC)c1	IC50	1.77
CN1C/C(=C\c2ccc(Br)cc2)C(=O)/C(=C/c2ccc(C#N)cc2)C1	IC50	4.4
CN1C/C(=C\c2ccc(C#N)cc2)C(=O)/C(=C/c2ccc(C(F)(F)F)cc2)C1	IC50	1.43
